Would you mind telling me the reported viability, T/C of each entry?
- System: 843126-344-R-J1-PDC complex spheroid viability;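 also: spheroids exposed to drugs for seven days before readout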
- experiment.summary: Anticancer human tumor 843126-344-R-J1-PDC patient-derived melanoma cell line growth inhibition [POLQ]
- experimental.setup: second compound 10 µM; first compound 0.001 µM; active compounds read low

Return reported viability, T/C; argument: CC[C@@]1(O)C(=O)OCc2c1cc1n(c2=O)Cc2cc3c(CN(C)C)c(O)ccc3nc2-1 + Cc1cccc(N(C)C(=O)C2C(O)CCN2c2nc(C)cc(C(F)(F)F)c2C#N)c1
83.9%

Return reported viability, T/C; argument: Cn1ncnc1[C@H]1c2n[nH]c(=O)c3cc(F)cc(c23)N[C@@H]1c1ccc(F)cc1 + Nc1ccc(C#CCN(C(=O)Cc2ncc(C(F)(F)F)cc2C(F)(F)F)c2ccc(F)cc2)nn1
83.6%

Return reported viability, T/C; argument: CC[C@@]1(O)C(=O)OCc2c1cc1n(c2=O)Cc2cc3c(CN(C)C)c(O)ccc3nc2-1 + COC1C(OC(N)=O)C(O)C(Oc2ccc3c(O)c(NC(=O)c4ccc(O)c(CC=C(C)C)c4)c(=O)oc3c2C)OC1(C)C
109%

meta.source: PubChem BioAssay AID1963837
